- target_under_test: HLA-A*02:01 (Homo sapiens, UniProt P04439, D140Y/D185E/D98H/E176V/E277Q/G131W/G231S/I119V/I121R/I166T/I218V/L300P/L318F/N151K/N90K/P208A/P217A/Q86G/Q94H/R138H/R169H/T345S)
- assay_protocol: MHC binding assay (UV-ligand exchange, beta2m ELISA)
- conditions_used: binding to HLA-A*02:01, β2m ELISA
measured_quantity: Peptide exchange (MHC class I binding score, peptide exchange yield)

INSERT INTO measurements (substance, result_value) VALUES
  ('9 (SLITGQDLLSV; listed as Homo sapiens) [compound 9]', '+++ (≥50 = +++)'),
  ('204 (SEWGSPHAAVP; listed as Homo sapiens) [compound 204]', '+++ (≥50 = +++)'),
  ('253 (KLLAVIHEL; listed as Homo sapiens) [compound 253]', '+++ (≥50 = +++)'),
  ('91 (LLPSIFLMV; listed as Homo sapiens) [compound 91]', '++ (≥20% = ++)'),
  ('74 (GLAFLPASV; listed as Homo sapiens) [compound 74]', '++ (≥20% = ++)'),
  ('72 (VLSTRVTNV; listed as Homo sapiens) [compound 72]', '++ (≥20% = ++)'),
  ('37 (QIVELIEKI; listed as Homo sapiens) [compound 37]', '++ (≥20% = ++)'),
  ('213 (ILAVDGVLSV; listed as Homo sapiens) [compound 213]', '+++ (≥50 = +++)'),
  ('148 (YLILSSHQL; listed as Homo sapiens) [compound 148]', '+++ (≥50 = +++)'),
  ('76 (FTAEFLEKV; listed as Homo sapiens) [compound 76]', '+++ (≥50 = +++)'),
  ('168 (VIFEGEPMYL; listed as Homo sapiens) [compound 168]', '+++ (≥50 = +++)'),
  ('7 (ALLQALMEL; listed as Homo sapiens) [compound 7]', '+++ (≥50 = +++)'),
  ('112 (ILAQDVAQL; listed as Homo sapiens) [compound 112]', '+++ (≥50 = +++)'),
  ('86 (SLFSNIESV; listed as Homo sapiens) [compound 86]', '+++ (≥50 = +++)'),
  ('119 (SLIEESEEL; listed as Homo sapiens) [compound 119]', '++ (≥20% = ++)'),
  ('5 (GLVDIMVHL; listed as Homo sapiens) [compound 5]', '+++ (≥50 = +++)'),
  ('28 (IKVTDPQLLEL; listed as Homo sapiens) [compound 28]', '++ (≥20% = ++)'),
  ('95 (KLIDEDEPLFL; listed as Homo sapiens) [compound 95]', '+++ (≥50 = +++)'),
  ('187 (SILKEDPFL; listed as Homo sapiens) [compound 187]', '++ (≥20% = ++)'),
  ('85 (KLLDKPEQFL; listed as Homo sapiens) [compound 85]', '++ (≥20% = ++)');
